# MEASURED TARGET: human ether-à-go-go-related gene (hERG) potassium channel (human, UniProt Q12809);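 also: peak tail current of the secondary pulse compared with the same well before compound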
# Sequence (Q12809 whole entry, looked up): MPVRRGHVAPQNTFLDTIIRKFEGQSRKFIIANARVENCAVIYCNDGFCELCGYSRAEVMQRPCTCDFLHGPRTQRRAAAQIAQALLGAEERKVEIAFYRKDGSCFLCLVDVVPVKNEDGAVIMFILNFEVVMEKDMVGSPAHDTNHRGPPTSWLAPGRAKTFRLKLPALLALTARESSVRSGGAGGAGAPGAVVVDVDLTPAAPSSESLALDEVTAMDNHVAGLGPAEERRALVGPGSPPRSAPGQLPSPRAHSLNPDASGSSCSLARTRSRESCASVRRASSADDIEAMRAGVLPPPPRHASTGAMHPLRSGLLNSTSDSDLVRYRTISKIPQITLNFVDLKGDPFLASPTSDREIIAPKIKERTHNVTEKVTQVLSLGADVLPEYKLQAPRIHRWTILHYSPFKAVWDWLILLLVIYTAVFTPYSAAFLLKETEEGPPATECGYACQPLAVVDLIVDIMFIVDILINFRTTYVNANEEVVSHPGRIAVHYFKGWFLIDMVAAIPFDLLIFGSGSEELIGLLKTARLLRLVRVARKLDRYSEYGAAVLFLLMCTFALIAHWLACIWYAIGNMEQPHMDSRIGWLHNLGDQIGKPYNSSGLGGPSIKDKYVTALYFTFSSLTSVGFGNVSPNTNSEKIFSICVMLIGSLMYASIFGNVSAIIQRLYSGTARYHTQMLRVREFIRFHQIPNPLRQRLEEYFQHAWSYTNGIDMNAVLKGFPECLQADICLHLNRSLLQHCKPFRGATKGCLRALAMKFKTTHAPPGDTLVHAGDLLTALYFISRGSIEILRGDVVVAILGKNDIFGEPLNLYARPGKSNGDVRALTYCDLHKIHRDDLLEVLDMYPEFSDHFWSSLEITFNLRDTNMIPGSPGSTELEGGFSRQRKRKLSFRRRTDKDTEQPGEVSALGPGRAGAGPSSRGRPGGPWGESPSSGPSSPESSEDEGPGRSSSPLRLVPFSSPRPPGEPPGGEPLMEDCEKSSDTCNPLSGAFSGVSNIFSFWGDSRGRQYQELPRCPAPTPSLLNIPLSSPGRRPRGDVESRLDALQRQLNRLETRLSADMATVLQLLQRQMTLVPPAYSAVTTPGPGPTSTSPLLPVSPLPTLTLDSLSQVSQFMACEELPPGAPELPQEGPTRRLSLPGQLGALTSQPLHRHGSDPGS
# EXPERIMENT NOTES: primary screen, population patch clamp on CHO cells stably expressing hERG; higher = less effect of the substance
The campaign covered roughly 310,000 compounds. About 14,000 (4.5%) showed an effect of 50% or more. Effects have a minus sign here. This excerpt belongs to a sample that is enriched for strong results.
ENDPOINT: hERG current change (%, negative = inhibition) at 10uM (%)

COMPOUND	REPORTED RESULT
Cc1ccc2cc(C#N)c(N3CCN(C)CC3)nc2c1	2.75
COc1ccc([N+](=O)[O-])cc1N(CC(O)CN1CCOCC1)S(=O)(=O)c1ccccc1 (stereo not drawn)	20
CC1(C)NC(=O)N(CC(O)CN(c2ccccc2)S(=O)(=O)c2ccc([N+](=O)[O-])cc2)C1=O (stereo not drawn)	-13.7
Nc1nc2n(n1)C(c1c(F)cccc1Cl)CC(c1ccc(F)cc1)N2 (stereo not drawn)	-62.4
CSCC[C@H](NC(=O)OC(C)(C)C)c1nnc(SCc2ccccc2)o1	-51.3
CCOC(=O)Cn1cc(C#N)c2ccccc21	15.1
COc1ccc(C(=O)N2CCN(c3nc4cc(C)ccc4cc3C#N)CC2)c(OC)c1	-22.8
CC(=O)Oc1ccc2ccccc2c1C(NC(=O)Cc1ccccc1)c1ccccc1Cl (stereo not drawn)	7.9
COC(=O)CSc1ncnc2c1sc1nc3c(cc12)COC(C)(C)C3	23.5
O=C(Nn1c(C2CC2)nc2ccccc2c1=O)c1ccco1	-8.14
C/C(CC(=O)NC(C)(C)C)=N\NC(N)=S	20
CCOc1ccccc1C1CC(c2ccc(Br)cc2)Nc2nc(N)nn21 (stereo not drawn)	-55.1
CCCOc1ccccc1N/C(=N\S(=O)(=O)c1ccc(C)cc1)Nc1nc(C)cc(C)n1	26.1
N#Cc1cccnc1N1CCN(C(=O)c2cccs2)CC1	-1.7
Cn1cc(CN2CCC(Oc3ccc(C(=O)N4CCCC4)cc3)CC2)cn1	9.86
COc1ccc(C/C(N)=N/OC(=O)Cc2ccccc2)cc1	-7.03
Cc1ccccc1C1CC(c2ccc(Br)cc2)Nc2nc(N)nn21 (stereo not drawn)	-52.3
O=C(CN1C(=O)NC2(CCCc3ccccc32)C1=O)N1CCc2ccccc2C1 (stereo not drawn)	-17.3
COc1cccc(C2CC(c3c(F)cccc3Cl)n3nc(N)nc3N2)c1 (stereo not drawn)	-2.6
CCc1ccc2nc(N3CCN(C)CC3)c(C#N)cc2c1	-54.3
CSCC[C@H](NC(=O)OC(C)(C)C)c1nnc(SCC(=O)Nc2ccc(C)cc2C)o1	-50.1
Cc1cccc2cc(C#N)c(N3CCN(C)CC3)nc12	-46
COc1ccc2cc(C#N)c(N3CCN(C(=O)c4ccccc4C)CC3)nc2c1	-18.9
Cc1ccc(C2CC(c3ccccc3C)n3nc(N)nc3N2)cc1 (stereo not drawn)	-14.6
Cc1ccccc1C1CC(c2ccc(F)cc2)Nc2nc(N)nn21 (stereo not drawn)	-27.2
C/C=C/c1ccc(OCC(=O)Nc2ccncc2)c(OC)c1	-14.9
Cc1ccc(CNS(=O)(=O)c2ccc(F)c(F)c2)n1C	15.3
CCOc1ccccc1C1CC(c2ccc(F)cc2)Nc2nc(N)nn21 (stereo not drawn)	-48.1
CC/C(=N\NC(=O)Nc1ccccc1)c1c(O)n(Cc2ccccc2)c(=O)[nH]c1=O	3.1
CN(C)NC(=S)Nc1ccc(S(=O)(=O)N2CCCCC2)cc1	-5.26
O=C(c1nc(SCc2ccc([N+](=O)[O-])cc2)n2ccccc12)C(F)(F)F	-71.1
CCCCc1nnc(NC(=O)C23CC4CC(CC(NC(C)=O)(C4)C2)C3)s1	-1.81
CSCC[C@H](NC(=O)OC(C)(C)C)c1nnc(SCc2cccc(F)c2)o1	-30.3
